// reported pKd per item
biological target: Muscarinic acetylcholine receptor M3 (Cavia porcellus); experiment: Dissociation constant for complex with muscarinic acetylcholine receptor M3 of guinea pig ileum
pKd: −log10 of the molar value.

{"Compound": "CNC(=O)N(C)CC#CCN1CCCC1", "pKd": 4.58}
{"Compound": "O=C1NCCN1CC#CCN1CCCC1", "pKd": 4.52}
{"Compound": "CC1CCN(CC#CCN2CCCC2)C1=O (stereo not drawn)", "pKd": 4.94}
{"Compound": "CN(CC#CCN1CCCC1)C(N)=O", "pKd": 4.31}
{"Compound": "CC(C#CCN1CCCC1)N1CCNC1=O (stereo not drawn)", "pKd": 6.32}
{"Compound": "CN1CCN(CC#CCN2CCCC2)C1=O", "pKd": 5.54}
{"Compound": "CC(=O)N(C)C(C)C#CCN1CCCC1 (stereo not drawn)", "pKd": 6.62}
{"Compound": "CC(C#CCN1CCCC1)N(C)C(N)=O (stereo not drawn)", "pKd": 6.15}

----------
target: Muscarinic acetylcholine receptor M3 (Cavia porcellus) (UniProt Q8VH26); experiment: Relative efficacies determined with oxotremorine as the reference in guinea pig ileum, as a measure of muscarinic acetylcholine receptor M3 agonistic activity; type: functional, tissue-based
Sequence (Q8VH26 1-587): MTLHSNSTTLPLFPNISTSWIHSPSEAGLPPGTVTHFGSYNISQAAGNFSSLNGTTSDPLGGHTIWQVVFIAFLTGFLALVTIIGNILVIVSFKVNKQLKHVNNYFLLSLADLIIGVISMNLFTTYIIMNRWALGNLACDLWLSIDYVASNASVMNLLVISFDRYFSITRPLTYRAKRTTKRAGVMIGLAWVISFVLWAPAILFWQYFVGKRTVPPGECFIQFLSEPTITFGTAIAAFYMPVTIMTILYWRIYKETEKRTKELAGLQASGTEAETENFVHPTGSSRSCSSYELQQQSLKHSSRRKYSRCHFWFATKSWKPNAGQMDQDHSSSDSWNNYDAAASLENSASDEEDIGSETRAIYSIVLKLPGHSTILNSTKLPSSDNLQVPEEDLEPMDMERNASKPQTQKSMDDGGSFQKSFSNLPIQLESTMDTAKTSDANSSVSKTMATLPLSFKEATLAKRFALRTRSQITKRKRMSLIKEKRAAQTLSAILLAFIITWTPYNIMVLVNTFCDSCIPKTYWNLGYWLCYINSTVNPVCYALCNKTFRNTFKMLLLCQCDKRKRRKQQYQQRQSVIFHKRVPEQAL
Efficacy less than 0.1 is T; Efficacy greater than or equal to 0.1 is F.

{"Compound": "CNC(=O)N(C)CC#CCN1CCCC1", "Label Value": "F"}
{"Compound": "CC(C#CCN1CCCC1)N(C)C(N)=O (centres undefined)", "Label Value": "T"}
{"Compound": "O=C1CCCN1CC#CCN1CCCC1 [OXOTREMORINE]", "Label Value": "F"}
{"Compound": "O=C1NCCN1CC#CCN1CCCC1", "Label Value": "F"}
{"Compound": "CNC(=O)N(C)C(C)C#CCN1CCCC1 (centres undefined)", "Label Value": "F"}
{"Compound": "C[N+](C)(C)CCOC(N)=O", "Label Value": "F"}
{"Compound": "CN1CCN(CC#CCN2CCCC2)C1=O", "Label Value": "F"}
{"Compound": "CC(C#CCN1CCCC1)N1CCNC1=O (centres undefined)", "Label Value": "T"}
{"Compound": "CN(CC#CCN1CCCC1)C(N)=O", "Label Value": "T"}
{"Compound": "CC(=O)N1CCN(CC#CCN2CCCC2)C1=O", "Label Value": "T"}
{"Compound": "O=CN1CCN(CC#CCN2CCCC2)C1=O", "Label Value": "F"}
{"Compound": "CC(=O)N(C)C(C)C#CCN1CCCC1 (centres undefined)", "Label Value": "T"}
{"Compound": "CC(C#CCN1CCCC1)N1CCCC1=O (centres undefined)", "Label Value": "T"}
{"Compound": "O=C1CNC(=O)N1CC#CCN1CCCC1", "Label Value": "F"}

----------
target: Muscarinic acetylcholine receptor; experiment: Displacement of [3H]3-quinuclidinyl benzilate ([3H]-QNB) from muscarinic acetylcholine receptor of rat cerebral cortex; assay type: tissue-based

{"Compound": "CC(C#CCN1CCCC1)N1CCCC1=O (stereo not drawn)", "Ki, µM": 0.059}
{"Compound": "O=CN1CCN(CC#CCN2CCCC2)C1=O", "Ki, µM": 26.4}
{"Compound": "O=C1NCCN1CC#CCN1CCCC1", "Ki, µM": 6.5}
{"Compound": "O=C1CNC(=O)N1CC#CCN1CCCC1", "Ki, µM": 17.2}
{"Compound": "CN1CCN(CC#CCN2CCCC2)C1=O", "Ki, µM": 1.6}
{"Compound": "CC(C#CCN1CCCC1)N(C)C(N)=O (stereo not drawn)", "Ki, µM": 0.42}
{"Compound": "CC(C#CCN1CCCC1)N1CCNC1=O (stereo not drawn)", "Ki, µM": 0.64}
{"Compound": "CN(CC#CCN1CCCC1)C(N)=O", "Ki, µM": 10.7}

----------
target: Muscarinic acetylcholine receptor; assay: Displacement of [3H]3-quinuclidinyl benzilate ([3H]-QNB) from muscarinic acetylcholine receptor of rat cerebral cortex; type: tissue-based

{"Compound": "CC(=O)N1CCN(CC#CCN2CCCC2)C1=O", "Ki [µM]": 27.4}
{"Compound": "CNC(=O)N(C)CC#CCN1CCCC1", "Ki [µM]": 15.8}
{"Compound": "CNC(=O)N(C)C(C)C#CCN1CCCC1 (centres undefined)", "Ki [µM]": 4.2}
{"Compound": "O=C1CCCN1CC#CCN1CCCC1", "Ki [µM]": 0.23}

----------
target: Muscarinic acetylcholine receptor M3 (Cavia porcellus); experiment: Muscarinic acetylcholine receptor M3 agonistic/antagonistic activity in guinea pig ileum
pEC50: −log10 of the molar value.
Entries and their measured pEC50 follow.

{"Compound": "CNC(=O)N(C)CC#CCN1CCCC1", "Qualifier Operator": "=", "pEC50": 5.67}
{"Compound": "CN(CC#CCN1CCCC1)C(N)=O", "Qualifier Operator": "=", "pEC50": 4.35}
{"Compound": "CNC(=O)N(C)C(C)C#CCN1CCCC1 (stereo unspecified)", "Qualifier Operator": "=", "pEC50": 5.68}
{"Compound": "CC1CCN(CC#CCN2CCCC2)C1=O (stereo unspecified)", "Qualifier Operator": "=", "pEC50": 6.30}
{"Compound": "O=C1NCCN1CC#CCN1CCCC1", "Qualifier Operator": "=", "pEC50": 5.57}
{"Compound": "O=CN1CCN(CC#CCN2CCCC2)C1=O", "Qualifier Operator": "=", "pEC50": 5.07}
{"Compound": "CN1CCN(CC#CCN2CCCC2)C1=O", "Qualifier Operator": "=", "pEC50": 7.00}
{"Compound": "O=C1CNC(=O)N1CC#CCN1CCCC1", "Qualifier Operator": "=", "pEC50": 4.33}
{"Compound": "O=C1CCCN1CC#CCN1CCCC1 [OXOTREMORINE]", "Qualifier Operator": "=", "pEC50": 7.30}
{"Compound": "CC(=O)N1CCN(CC#CCN2CCCC2)C1=O", "Qualifier Operator": "<", "pEC50": 3.52}
{"Compound": "CC(=O)N(C)C(C)C#CCN1CCCC1 (stereo unspecified)", "Qualifier Operator": "=", "pEC50": 6.72}

----------
Entries and their log10(Kd) values follow.
target: Muscarinic acetylcholine receptor M3 (Cavia porcellus, UniProt Q8VH26); assay: Dissociation constant for complex with muscarinic acetylcholine receptor M3 of guinea pig ileum
Sequence (Q8VH26 whole entry): as the sequence (Q8VH26 1-587) above
Reported Metric: log10(Kd) (log10 of the value in µM)

{"Molecule": "O=C1CCCN1CC#CCN1CCCC1 [OXOTREMORINE]", "log10(Kd)": 0.08}
{"Molecule": "CC(C#CCN1CCCC1)N1CCCC1=O (stereo not given)", "log10(Kd)": -1.04}
{"Molecule": "CNC(=O)N(C)C(C)C#CCN1CCCC1 (stereo not given)", "log10(Kd)": 0.88}
{"Molecule": "O=CN1CCN(CC#CCN2CCCC2)C1=O", "log10(Kd)": 1.32}
{"Molecule": "O=C1CNC(=O)N1CC#CCN1CCCC1", "log10(Kd)": 2.00}

----------
target: Muscarinic acetylcholine receptor M3 (Cavia porcellus) (UniProt Q8VH26); experiment: Maximum contractile response relative to carbachol (E max) in guinea pig ileum as muscarinic acetylcholine receptor M3 agonistic/antagonistic activity; assay type: functional, tissue-based
Reported Metric: Emax

{"Molecule": "CNC(=O)N(C)CC#CCN1CCCC1", "Reported Metric": "Emax", "Observed Value": 1}
{"Molecule": "CC(C#CCN1CCCC1)N(C)C(N)=O (centres undefined)", "Reported Metric": "Emax", "Observed Value": 0}
{"Molecule": "CC(C#CCN1CCCC1)N1CCNC1=O (centres undefined)", "Reported Metric": "Emax", "Observed Value": 0}
{"Molecule": "CC(=O)N1CCN(CC#CCN2CCCC2)C1=O", "Reported Metric": "Emax", "Observed Value": 0}
{"Molecule": "CC(C#CCN1CCCC1)N1CCCC1=O (centres undefined)", "Reported Metric": "Emax", "Observed Value": 0}
{"Molecule": "CC(=O)N(C)C(C)C#CCN1CCCC1 (centres undefined)", "Reported Metric": "Emax", "Observed Value": 0.83}
{"Molecule": "CNC(=O)N(C)C(C)C#CCN1CCCC1 (centres undefined)", "Reported Metric": "Emax", "Observed Value": 1}
{"Molecule": "CN1CCN(CC#CCN2CCCC2)C1=O", "Reported Metric": "Emax", "Observed Value": 1}
{"Molecule": "O=C1CNC(=O)N1CC#CCN1CCCC1", "Reported Metric": "Emax", "Observed Value": 0.37}
{"Molecule": "CN(CC#CCN1CCCC1)C(N)=O", "Reported Metric": "Emax", "Observed Value": 0.57}
{"Molecule": "O=CN1CCN(CC#CCN2CCCC2)C1=O", "Reported Metric": "Emax", "Observed Value": 1}
{"Molecule": "O=C1CCCN1CC#CCN1CCCC1", "Reported Metric": "Emax", "Observed Value": 1}
{"Molecule": "C[N+](C)(C)CCOC(N)=O", "Reported Metric": "Emax", "Observed Value": 1}
{"Molecule": "O=C1NCCN1CC#CCN1CCCC1", "Reported Metric": "Emax", "Observed Value": 1}

Just for reference, ChEMBL document CHEMBL1125543 is where these values come from.
